# System name: T1, human MSLN full-length protein (NCBI: AAH09272.1) expressed on HEK293T-hMSLN-B8 cells (human, UniProt Q13421 296-598)
# T1 construct: Whole encoded precursor
# T1 sequence (Q13421 other isoform, or with tags, fused parts or gaps limits assumed): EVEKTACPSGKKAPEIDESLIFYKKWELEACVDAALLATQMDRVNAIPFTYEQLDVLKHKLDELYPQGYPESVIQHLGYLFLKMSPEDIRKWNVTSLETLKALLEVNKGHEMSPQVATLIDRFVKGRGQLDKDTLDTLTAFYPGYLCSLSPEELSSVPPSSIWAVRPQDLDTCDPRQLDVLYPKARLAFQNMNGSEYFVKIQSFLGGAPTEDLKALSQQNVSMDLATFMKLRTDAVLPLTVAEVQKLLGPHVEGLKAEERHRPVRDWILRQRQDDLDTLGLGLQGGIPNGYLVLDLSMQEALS
# Assay method text: FACS on HEK293T-hMSLN-B8 cells
Quantity: EC50 (nM)
Number in nM, nothing else.

Binder	Units text	EC50
S009-F2.58.8 (antibody, human IgG1, kappa, V domains shown, human-murine chimeric antibody, human IgG1/kappa constant regions) VH: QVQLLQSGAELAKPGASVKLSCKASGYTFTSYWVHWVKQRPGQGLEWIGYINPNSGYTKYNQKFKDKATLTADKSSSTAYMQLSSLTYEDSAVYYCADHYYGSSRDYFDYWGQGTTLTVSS VL: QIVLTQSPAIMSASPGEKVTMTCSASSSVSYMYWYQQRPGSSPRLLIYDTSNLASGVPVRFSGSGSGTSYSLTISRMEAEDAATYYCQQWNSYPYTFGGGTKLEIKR	nM	3.5

Please find the next binder below.
# input Could you tell me which EC50 is on file for S009-F2.16.10 (antibody, human IgG1, kappa, V domains shown, human-murine chimeric antibody, human IgG1/kappa constant regions) VH: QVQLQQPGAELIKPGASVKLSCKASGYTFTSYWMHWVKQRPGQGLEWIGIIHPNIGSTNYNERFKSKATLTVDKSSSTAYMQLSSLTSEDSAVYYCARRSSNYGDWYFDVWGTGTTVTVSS VL: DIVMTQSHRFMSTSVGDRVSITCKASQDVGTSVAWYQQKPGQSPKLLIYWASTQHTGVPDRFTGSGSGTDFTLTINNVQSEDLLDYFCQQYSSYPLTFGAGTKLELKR ?
# output 0.88
